Just for reference, patent US20230382949A1 is where these values come from.

target: human Apelin receptor (Homo sapiens); assay: cAMP accumulation assay (HTRF), functional agonism of human Apelin receptors; type: cell-based; settings: CHO, Human Apelin agonist cAMP assay; CHO cells stably expressing the human Apelin receptor, 3 uM forskolin
Sequence (P35414 whole entry): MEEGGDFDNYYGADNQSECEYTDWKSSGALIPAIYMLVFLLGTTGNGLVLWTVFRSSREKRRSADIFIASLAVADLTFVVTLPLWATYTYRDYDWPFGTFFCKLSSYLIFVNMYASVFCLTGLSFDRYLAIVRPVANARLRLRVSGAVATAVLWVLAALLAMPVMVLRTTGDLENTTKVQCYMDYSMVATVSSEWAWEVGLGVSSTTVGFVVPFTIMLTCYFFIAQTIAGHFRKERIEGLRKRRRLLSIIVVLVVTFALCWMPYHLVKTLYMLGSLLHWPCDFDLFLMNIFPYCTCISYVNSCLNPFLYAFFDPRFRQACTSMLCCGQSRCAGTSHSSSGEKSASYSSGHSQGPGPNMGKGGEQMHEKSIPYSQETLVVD
Starred links: 1 amine or outer side, 2 acyl side, 3 side chain; linkers in the order of their positions; H or OH if unused. Non-standard residues stand in square brackets, D forms with d. Residues, ends and D or L forms follow the SMILES beside them. *: point of attachment. Ala(piperidin-4-yl) = O=C([C@H](CC1CCN([*:3])CC1)N[*:1])[*:2]; Malonyl(2,2-Me2,histaminyl) = CC(C)(C(=O)NCCc1cnc[nH]1)C(=O)*; dBip = N[C@H](Cc1ccc(-c2ccccc2)cc1)C(=O)O; Oic = O=C(O)[C@@H]1C[C@@H]2CCCC[C@@H]2N1; Phe(4-Br) = N[C@@H](Cc1ccc(Br)cc1)C(=O)O; X1 = CC(C)(C(=O)NCCc1ccccc1)C(=O)*; X3 = CC(C)(C(=O)NCCc1ccccn1)C(=O)*; hArg = N=C(N)NCCCC[C@H](N)C(=O)O; Nle = CCCC[C@H](N)C(=O)O; Aib = CC(C)(N)C(=O)O
Listed below: Emax values for each entry.
QUANTITY_NAME: Emax (%)

CCCC[C@H](NC(=O)[C@@H]1C[C@@H]2CCCC[C@@H]2N1C(=O)CNC(=O)[C@H](CC1CCNCC1)NC(=O)[C@H](Cc1c[nH]cn1)NC(=O)[C@@H](C)NC(=O)[C@H](CC(C)C)NC(=O)[C@H](CCCNC(=N)N)NC(=O)[C@@H]1CCCN1C(=O)[C@H](CCCNC(=N)N)NC(=O)[C@H](CCC(N)=O)NC(=O)C(C)(C)C(=O)NCCc1cnc[nH]1)C(=O)N1CCC[C@H]1C(=O)N[C@H](Cc1ccc(-c2ccccc2)cc1)C(=O)O [Example 59] ({Malonyl(2,2-Me2,histaminyl)}-QRPRL[dA]H[Ala(piperidin-4-yl)]G[Oic][Nle]P[dBip]-OH)	48.1
CC(C)C[C@H](NC(=O)[C@@H](CCCNC(=N)N)NC(=O)C1C2CC2CN1C(=O)[C@H](CCCCNC(=N)N)NC(=O)[C@H](CCC(N)=O)NC(=O)[C@@H](CCCNC(=N)N)NC(=O)C(C)(C)C(=O)NCCc1c[nH]cn1)C(=O)NC(C)(C)C(=O)N[C@@H](Cc1c[nH]cn1)C(=O)N[C@@H](CC1CCNCC1)C(=O)NCC(=O)N1[C@H](C(=O)N[C@@H](Cc2ccc(Br)cc2)C(=O)N2CCC[C@H]2C(=O)N[C@H](Cc2ccc(-c3ccccc3)cc2)C(=O)O)C[C@@H]2CCCC[C@@H]21 (single isomer, unassigned) [37 Isomer 1]	68.6
CC(C)C[C@H](NC(=O)[C@@H](CCCNC(=N)N)NC(=O)[C@@H]1CCCN1C(=O)[C@H](CCCCNC(=N)N)NC(=O)[C@H](CCC(N)=O)NC(=O)C(C)(C)C(=O)NCCc1ccccc1)C(=O)NC(C)(C)C(=O)N[C@@H](Cc1c[nH]cn1)C(=O)N[C@@H](CC1CCNCC1)C(=O)NCC(=O)N1[C@H](C(=O)N[C@@H](Cc2ccc(Br)cc2)C(=O)N2CCC[C@H]2C(=O)N[C@H](Cc2ccc(-c3ccccc3)cc2)C(=O)O)C[C@@H]2CCCC[C@@H]21 [Example 45] (X1-Q[hArg]P[dR]L[Aib]H[Ala(piperidin-4-yl)]G[Oic][Phe(4-Br)]P[dBip]-OH)	59
CC(C)C[C@H](NC(=O)[C@@H](CCCNC(=N)N)NC(=O)[C@@H]1CCCN1C(=O)[C@H](CCCCNC(=N)N)NC(=O)[C@H](CCC(N)=O)NC(=O)C(C)(C)C(=O)NCCc1ccccn1)C(=O)NC(C)(C)C(=O)N[C@@H](Cc1c[nH]cn1)C(=O)N[C@@H](CC1CCNCC1)C(=O)NCC(=O)N1[C@H](C(=O)N[C@@H](Cc2ccc(Br)cc2)C(=O)N2CCC[C@H]2C(=O)N[C@H](Cc2ccc(-c3ccccc3)cc2)C(=O)O)C[C@@H]2CCCC[C@@H]21 [Example 46] (X3-Q[hArg]P[dR]L[Aib]H[Ala(piperidin-4-yl)]G[Oic][Phe(4-Br)]P[dBip]-OH)	55
